Tested on: Porcine atria myofibrils (atrial myosin ATPase)
Experiment: Myofibril ATPase assay, porcine atria myofibrils
Format: biochemical
Details: Y75 value (no ‡ mark); porcine atria myofibrils
measurementName: Atrial EC25 (nM)
Answers are plain numbers, in nM.

Below, each entry is followed by its recorded Atrial EC25 result.
Cc1nc(C#N)cnc1[C@@H](C)NC(=O)Cc1c(C)c2c(C#N)c(F)ccc2[nH]c1=O (single isomer, unassigned)	70
C[C@@H](NC(=O)C(F)(F)c1cc2cc(F)ccc2[nH]c1=O)c1cccc(C#N)n1 (single isomer, unassigned)	100000
C[C@@H](NC(=O)Cc1cc2cc(F)ccc2[nH]c1=O)c1ncc(C#N)cn1 (single isomer, unassigned)	1260
C[C@H](NC(=O)[C@@H](C)c1cc2c(F)cccc2[nH]c1=O)c1ccc(F)cc1F (single isomer, unassigned)	100000
Cc1c(CC(=O)N[C@H](C)c2ncc(C#N)cc2F)c(=O)[nH]c2ccc(Cl)cc12 (single isomer, unassigned)	150
C[C@H](NC(=O)C(F)(F)c1cc2c(C#N)c(F)ccc2[nH]c1=O)c1ncc(C#N)cc1F (single isomer, unassigned)	200
C[C@@H](NC(=O)C(F)(F)c1cc2c(C#N)c(F)ccc2[nH]c1=O)c1ncc(C#N)cc1F (single isomer, unassigned)	240
Cc1cc(C#N)nnc1[C@@H](C)NC(=O)Cc1c(C)c2cc(F)ccc2[nH]c1=O	1920

For every item below, please supply its Atrial EC25.
1. Cc1c(C(F)(F)C(=O)N[C@@H]2COc3cc(C#N)cc(F)c32)c(=O)[nH]c2ccc(F)cc12 (single isomer, unassigned)
2. C[C@H](NC(=O)C(F)(F)c1cc2c(F)c(F)ccc2[nH]c1=O)c1ncc(C#N)cn1 (single isomer, unassigned)
3. C[C@H](NC(=O)Cc1c(C(F)(F)F)c2ccccc2[nH]c1=O)c1ccc(F)cc1F
4. Cc1c(CC(=O)N[C@H](C)c2ccc(C#N)nn2)c(=O)[nH]c2ccc(F)cc12
5. C[C@H](NC(=O)Cc1cc2c(F)c(F)ccc2[nH]c1=O)c1ccc(C#N)cn1

1: 510; 2: 200; 3: 210; 4: 480; 5: 90
